Tested on: E. coli TESEC Mtb DapB
procedure_details: growth (OD600 after 10 h); higher = more growth (less inhibition)
assay_context: arabinose induction (level): High; compound 0.1 mM; raw OD600 reference: median of DMSO wells […], cell-free background 0.041
Where a name gives a salt, the structure may show the parent alone.
quantity: growth

INSERT INTO assay_data (compound, quantity, observed_result) VALUES
  ('Cc1c(N(C)C)c(=O)n(-c2ccccc2)n1C', 'growth', 0.21),
  ('CC(=O)O[C@]1(C(C)=O)CC[C@H]2[C@@H]3C=C(C)C4=CC(=O)CC[C@@H]4[C@H]3CC[C@@]21C [Nomegestrol acetate]', 'growth', 0.144),
  ('CC(=O)N1CCN(c2ccc(OCC3COC(Cn4ccnc4)(c4ccc(Cl)cc4Cl)O3)cc2)CC1 (stereo not given)', 'growth', 0.0759),
  ('O=C(CCCCC(=O)Nc1c(I)cc(I)c(C(=O)O)c1I)Nc1c(I)cc(I)c(C(=O)O)c1I [Iodipamide]', 'growth', 0.213),
  ('CN1CCC(=C2c3ccccc3Sc3ccccc32)CC1 [Pimethixene maleate]', 'growth', 0.15);

----------
growth overview
Tested on: E. coli TESEC Mtb DapB
procedure_details: growth (OD600 after 10 h); higher = more growth (less inhibition)
assay_context: arabinose induction (level): High; compound 0.1 mM; raw OD600 reference: median of DMSO wells […], cell-free background 0.041
Counter-ions that a name gives are not always drawn.
quantity: growth

INSERT INTO results (compound, observed_result) VALUES
  ('CCC1(c2ccccc2)NC(=O)N(C)C1=O (stereo unspecified)', 0.184),
  ('NC(N)=Nc1nc(CSCC/C(N)=N/S(N)(=O)=O)cs1', 0.206),
  ('CC(=O)Oc1ccccc1C(=O)Oc1ccccc1C(=O)O', 0.19),
  ('N[C@@H]1CCCCN(c2c(F)cc3c(=O)c(C(=O)O)cn(C4CC4)c3c2Cl)C1 [Besifloxacin hydrochloride]', 0.0491),
  ('CC[C@]12CCCN3CCc4c(n(c5ccccc45)[C@@](O)(C(=O)OC)C1)[C@@H]32', 0.191),
  ('CC(C)(CO)C(O)C(=O)NCCCO (stereo unspecified)', 0.185),
  ('C[C@H](Cc1cc2c(c(C(N)=O)c1)N(CCCO)CC2)NCCOc1ccccc1OCC(F)(F)F', 0.201),
  ('CN1CCN(CCCN2c3ccccc3Sc3ccc(Cl)cc32)CC1 [Prochlorperazine dimaleate]', 0.156),
  ('COC(=O)C1=C(C)NC(C)=C(C(=O)OC)C1c1ccccc1[N+](=O)[O-]', 0.155),
  ('CN(C)CCOC(c1ccc(Cl)cc1)c1ccccn1 (stereo unspecified) [Carbinoxamine maleate salt]', 0.193),
  ('CC1CC(OC(=O)C(O)c2ccccc2)CC(C)(C)N1C (stereo unspecified) [Eucatropine hydrochloride]', 0.199),
  ('COc1ccc(CC2c3cc(OC)c(OC)cc3CC[N+]2(C)CCC(=O)OCCCCCOC(=O)CC[N+]2(C)CCc3cc(OC)c(OC)cc3C2Cc2ccc(OC)c(OC)c2)cc1OC (stereo unspecified) [Atracurium besylate]', 0.171),
  ('C=CCN1CCCC1CNC(=O)c1cc2nn[nH]c2cc1OC (stereo unspecified) [Alizapride HCl]', 0.217),
  ('Cc1cnc(C(=O)O)c[n+]1[O-]', 0.199),
  ('CC(N/C(=N\C#N)Nc1ccncc1)C(C)(C)C (stereo unspecified)', 0.19),
  ('CC[C@H](C)C(=O)O[C@H]1C[C@H](O)C=C2C=C[C@H](C)[C@H](CC[C@@H](O)C[C@@H](O)CC(=O)O)[C@H]21', 0.209),
  ('COc1cc2nc(N3CCN(C(=O)C4COc5ccccc5O4)CC3)nc(N)c2cc1OC (stereo unspecified) [Doxazosin mesylate]', 0.194),
  ('CC(C)(O)c1ccccc1CC[C@@H](SCC1(CC(=O)O)CC1)c1cccc(/C=C/c2ccc3ccc(Cl)cc3n2)c1', 0.183),
  ('O=C(O)CCC(=O)Nc1ccc(S(=O)(=O)Nc2nccs2)cc1', 0.196),
  ('Nc1nc2ccc(OC(F)(F)F)cc2s1 [Riluzole hydrochloride]', 0.241),
  ('Cn1c(=O)c2c(ncn2CC(=O)O)n(C)c1=O', 0.196);

----------
growth overview
System: E. coli TESEC Mtb Asd
procedure_details: growth (OD600 after 10 h); higher = more growth (less inhibition)
assay_context: arabinose induction (level): Low; compound 0.1 mM; raw OD600 reference: median of DMSO wells 0.417, cell-free background 0.041
Structures can show the parent of a compound that is named as a salt.
quantity: growth

INSERT INTO assay_data (compound, quantity, observed_result) VALUES
  ('C=C(NC(=O)C(=C)NC(=O)c1csc(C2=N[C@@H]3c4csc(n4)[C@H]4NC(=O)c5csc(n5)[C@H]([C@](C)(O)[C@@H](C)O)NC(=O)[C@H]5CSC(=N5)/C(=C/C)NC(=O)[C@H]([C@@H](C)O)NC(=O)c5csc(n5)[C@]3(CC2)NC(=O)[C@H](C)NC(=O)C(=C)NC(=O)[C@H](C)NC(=O)[C@H]([C@@H](C)CC)N[C@@H]2C=Cc3c([C@H](C)O)cc(nc3[C@H]2O)C(=O)O[C@@H]4C)n1)C(N)=O', 'growth', 0.299),
  ('NC(Cc1cc(I)c(Oc2cc(I)c(O)c(I)c2)c(I)c1)C(=O)O (stereo not drawn)', 'growth', 0.292),
  ('CN1CCN2c3ccccc3Cc3ccccc3C2C1 (stereo not drawn) [Mianserine hydrochloride]', 'growth', 0.303);

----------
System: E. coli TESEC Mtb Alr
procedure_details: growth (OD600 after 10 h); higher = more growth (less inhibition)
assay_context: arabinose 1000000 nM; compound 0.1 mM; raw OD600 reference: median of DMSO wells 0.193, cell-free background 0.041
Counter-ions that a name gives are not always drawn.
quantity: growth

INSERT INTO assay_data (compound, quantity, observed_result) VALUES
  ('Cc1cc(=O)n(-c2ccccc2)n1C [Antipyrine]', 'growth', 0.176),
  ('CN1CCC(=C2c3ccccc3CC(=O)c3sccc32)CC1 [Ketotifen fumarate]', 'growth', 0.131),
  ('CNCCC(Oc1ccccc1OC)c1ccccc1 (stereo not drawn) [Nisoxetine hydrochloride]', 'growth', 0.153),
  ('Cc1onc(-c2ccccc2Cl)c1C(=O)N[C@@H]1C(=O)N2[C@@H]1SC(C)(C)[C@@H]2C(=O)O [Cloxacillin sodium salt]', 'growth', 0.183),
  ('CC[N+](C)(CC)CCOC(=O)C1c2ccccc2Oc2ccccc21 [Methantheline bromide]', 'growth', 0.193),
  ('COc1ccc2cc(CCC(C)=O)ccc2c1', 'growth', 0.109),
  ('CC(=O)Oc1cccc2c1C(=O)c1c(OC(C)=O)cc(C(=O)O)cc1C2=O', 'growth', 0.0904),
  ('CN1CCC[C@@H]1CCO[C@](C)(c1ccccc1)c1ccc(Cl)cc1 [Clemastine fumarate]', 'growth', 0.0402),
  ('C[C@]12CCC(=O)C=C1C=C[C@@H]1[C@@H]2CC[C@@]2(C)[C@H]1CC[C@@]21CCC(=O)O1', 'growth', 0.0738),
  ('CCN1CCN(C(=O)N[C@@H](C(=O)N[C@@H]2C(=O)N3C(C(=O)O)=C(CSc4nnnn4C)CS[C@H]23)c2ccc(O)cc2)C(=O)C1=O [Cefoperazone dihydrate]', 'growth', 0.182),
  ('Cc1ncc(CO)c(CO)c1O [Pyridoxine hydrochloride]', 'growth', 0.174),
  ('CN(C)CCC(c1ccc(Br)cc1)c1ccccn1 (stereo not drawn) [Brompheniramine maleate]', 'growth', 0.162),
  ('COc1ccc2c(c1)N(C[C@H](C)CN(C)C)c1ccccc1S2 [Methotrimeprazine maleat salt]', 'growth', 0.139);

----------
Test system: E. coli TESEC Mtb Alr
procedure_details: growth (OD600 after 10 h); higher = more growth (less inhibition)
assay_context: arabinose 10000000 nM; compound 0.1 mM; raw OD600 reference: median of DMSO wells 0.146, cell-free background 0.041
Counter-ions that a name gives are not always drawn.
quantity: growth

INSERT INTO assay_data (molecule, quantity, observed_result) VALUES
  ('C#CCN[C@@H]1CCc2ccccc21', 'growth', 0.142),
  ('CN(C/C=C/c1ccccc1)Cc1cccc2ccccc12 [Naftifine hydrochloride]', 'growth', 0.0527),
  ('CC(=O)Nc1c(I)c(NC(C)=O)c(I)c(C(=O)O)c1I [Diatrizoic acid dihydrate]', 'growth', 0.131),
  ('CN(C)c1ccc(O)c2c1C[C@H]1C[C@H]3[C@H](N(C)C)C(=O)C(C(N)=O)=C(O)[C@@]3(O)C(=O)C1=C2O [Minocycline hydrochloride]', 'growth', 0.0426),
  ('CCOC(=O)N1CCC(=C2c3ccc(Cl)cc3CCc3cccnc32)CC1', 'growth', 0.103),
  ('NC[C@H]1CC[C@H](C(=O)O)CC1', 'growth', 0.141),
  ('Cc1cc(C(=O)NNCc2ccccc2)no1', 'growth', 0.158),
  ('O=C(O)c1cc(-c2ccc(F)cc2F)ccc1O', 'growth', 0.112),
  ('Nc1ccn([C@@H]2O[C@H](CO)[C@@H](O)C2(F)F)c(=O)n1', 'growth', 0.164),
  ('C#C[C@]1(O)CC[C@H]2[C@@H]3CCC4=Cc5oncc5C[C@]4(C)[C@H]3CC[C@@]21C', 'growth', 0.152),
  ('CC1(C)O[C@@H]2C[C@H]3[C@@H]4CCC5=CC(=O)CC[C@]5(C)[C@@]4(F)[C@@H](O)C[C@]3(C)[C@]2(C(=O)CCl)O1 [Halcinonide]', 'growth', 0.152);
